All values here come from the supplement of paper PMC6555819.

PBM binding z-score for assorted sequences
# System: PPARg DBDmut IVT, anti-PPARg (DBD mutation: PPARg1 K132A/R137A, NR concentration 270 nM)
# procedure_text: PBM binding z-score (relative to random genomic background probes); higher = stronger binding; sequences stand for … in GC…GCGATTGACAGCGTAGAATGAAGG
I only need the number, thanks.

### Prompt Report measured PBM binding z-score; entry is AGTCAAAGTTTATCTAGGTAACGTAAGATATGCT
### Response 1.54

Continuing:
### Prompt Report measured PBM binding z-score; entry is CAAACCAGGTCACAGAGGTCAAAGTCCGTGCGTA
### Response 2.74

### Prompt Report measured PBM binding z-score; entry is GGAACGAGGTCATTCGAGTTGATAGCATGGCGAT
### Response 0.0541

### Prompt Report measured PBM binding z-score; entry is CGTCAAAGGTCAGCAGGTCAGTGAAAGCGACGTG
### Response 1.47

----------
# System: PPARg DBDmut IVT, anti-PPARg (DBD mutation: PPARg1 K132A/R137A, NR concentration 270 nM)
# procedure_text: PBM binding z-score (relative to random genomic background probes); higher = stronger binding; sequences stand for … in GC…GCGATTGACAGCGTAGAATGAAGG
PBM binding z-score for assorted sequences

### Prompt Tell me PBM binding z-score of ATATGTAGGTTAGCTGAGGTCATTCAGACTAGGC when tested on PPARg DBDmut IVT, anti-PPARg (DBD mutation: PPARg1 K132A/R137A, NR concentration 270 nM).
### Response 1.4

Continuing:
### Prompt Tell me PBM binding z-score of CCTTAGGGGTCACTCCAGGTTATAGCATCGGAGT when tested on PPARg DBDmut IVT, anti-PPARg (DBD mutation: PPARg1 K132A/R137A, NR concentration 270 nM).
### Response 0.901

### Prompt Tell me PBM binding z-score of TGTATGAGGTTAAAGATCAGGGAACGTGGCGTCG when tested on PPARg DBDmut IVT, anti-PPARg (DBD mutation: PPARg1 K132A/R137A, NR concentration 270 nM).
### Response 0.628

### Prompt Tell me PBM binding z-score of GCTTACGGGTCAAAGGTCATAGCATGAATAGAAT when tested on PPARg DBDmut IVT, anti-PPARg (DBD mutation: PPARg1 K132A/R137A, NR concentration 270 nM).
### Response 1.67

### Prompt Tell me PBM binding z-score of CCTCGGAGGACAGAAGGTCAAAGCTGTCCGCTTT when tested on PPARg DBDmut IVT, anti-PPARg (DBD mutation: PPARg1 K132A/R137A, NR concentration 270 nM).
### Response -2.33

### Prompt Tell me PBM binding z-score of TTGCCAAGGTGAAAGGTCGTTGATGCACGCCTTG when tested on PPARg DBDmut IVT, anti-PPARg (DBD mutation: PPARg1 K132A/R137A, NR concentration 270 nM).
### Response -0.745

----------
# Tested on: PPARg:RXRa IVT, anti-PPARg (NR concentration 270 nM, RXRa partner concentration 90 nM)
# procedure_text: PBM binding z-score (relative to random genomic background probes); higher = stronger binding; sequences stand for … in GC…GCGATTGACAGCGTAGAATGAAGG
PBM binding z-score for assorted sequences
I only need the number, thanks.

### Prompt Tell me PBM binding z-score of CAAACGAGGTCACCGGAAGGTCAAAGTCCGCATG when tested on PPARg:RXRa IVT, anti-PPARg (NR concentration 270 nM, RXRa partner concentration 90 nM).
### Response 7.57
